Where these numbers come from: paper PMC10586451

Molecular target: butyrylcholinesterase (BChE) (Equus caballus)
Construct: butyrylcholinesterase (BChE) from horse serum
Test: biochemical
Conditions: mean ± SEM of three parallel measurements
# if measured IC50 < 40 µM: condition met  # else: condition not met

Example entries begin here.
query_smiles	label
O=C1C(=Cc2ccc(O)cc2)SC(=NN2CCOCC2)N1c1ccccc1	condition met
Cc1ccsc1C=C1SC(=NN2CCOCC2)N(c2ccccc2)C1=O	condition not met
O=C1C(=Cc2ccco2)SC(=NN2CCOCC2)N1c1ccccc1	condition met
O=C1C(=Cc2ccc(N3CCOCC3)cc2)SC(=NN2CCOCC2)N1c1ccccc1	condition met
O=C1C(=Cc2ccccn2)SC(=NN2CCOCC2)N1c1ccccc1	condition met

Exam item: Is IC50 strictly under 40 µM for the entry "O=C1C(=Cc2nccs2)SC(=NN2CCOCC2)N1c1ccccc1" ?
Marked response: condition met

Exam item: Record: "O=C1CSC(=NN2CCOCC2)N1c1ccccc1"
Marked response: condition not met

* * *

Target: Acetylcholinesterase (AChE) (Electrophorus electricus, UniProt O42275)
Sequence (O42275 24-633): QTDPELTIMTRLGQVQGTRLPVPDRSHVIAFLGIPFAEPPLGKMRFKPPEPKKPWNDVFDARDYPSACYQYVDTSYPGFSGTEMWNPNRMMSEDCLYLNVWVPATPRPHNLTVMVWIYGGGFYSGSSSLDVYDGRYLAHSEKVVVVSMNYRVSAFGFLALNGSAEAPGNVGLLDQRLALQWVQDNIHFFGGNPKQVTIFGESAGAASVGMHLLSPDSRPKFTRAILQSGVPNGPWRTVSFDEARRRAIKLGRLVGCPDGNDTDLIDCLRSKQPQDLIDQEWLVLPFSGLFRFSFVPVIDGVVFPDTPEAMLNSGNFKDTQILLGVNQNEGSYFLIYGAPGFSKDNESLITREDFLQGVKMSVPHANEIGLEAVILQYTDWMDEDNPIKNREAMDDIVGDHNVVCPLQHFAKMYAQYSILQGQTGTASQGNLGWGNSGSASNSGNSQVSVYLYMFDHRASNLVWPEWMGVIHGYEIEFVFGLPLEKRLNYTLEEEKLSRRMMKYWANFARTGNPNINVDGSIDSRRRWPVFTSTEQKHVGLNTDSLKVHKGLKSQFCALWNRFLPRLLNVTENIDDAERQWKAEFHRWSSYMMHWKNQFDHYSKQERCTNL
readout_label: pIC50
Numbers only, as −log10 of the molar value.

Recorded results for 4 compounds are shown here.
query_smiles	assay_value
O=C1C(=Cc2ccc(N(CCCl)CCCl)cc2)SC(=NN2CCOCC2)N1c1ccccc1	4.67
Cn1cccc1C=C1SC(=NN2CCOCC2)N(c2ccccc2)C1=O	4.69
Cc1ccsc1C=C1SC(=NN2CCOCC2)N(c2ccccc2)C1=O	4.46
O=C1C(=Cc2cccnc2)SC(=NN2CCOCC2)N1c1ccccc1	4.61

Batch request: pIC50 for each of the following compounds.
1. O=C1C(=Cc2ccc(O)cc2)SC(=NN2CCOCC2)N1c1ccccc1
2. O=C1CSC(=NN2CCOCC2)N1c1ccccc1

Marked response:
1. 4.57
2. 4.35

* * *

Target: butyrylcholinesterase (BChE) (Equus caballus, UniProt P81908)
Construct: butyrylcholinesterase (BChE) from horse serum
Sequence (P81908 whole entry): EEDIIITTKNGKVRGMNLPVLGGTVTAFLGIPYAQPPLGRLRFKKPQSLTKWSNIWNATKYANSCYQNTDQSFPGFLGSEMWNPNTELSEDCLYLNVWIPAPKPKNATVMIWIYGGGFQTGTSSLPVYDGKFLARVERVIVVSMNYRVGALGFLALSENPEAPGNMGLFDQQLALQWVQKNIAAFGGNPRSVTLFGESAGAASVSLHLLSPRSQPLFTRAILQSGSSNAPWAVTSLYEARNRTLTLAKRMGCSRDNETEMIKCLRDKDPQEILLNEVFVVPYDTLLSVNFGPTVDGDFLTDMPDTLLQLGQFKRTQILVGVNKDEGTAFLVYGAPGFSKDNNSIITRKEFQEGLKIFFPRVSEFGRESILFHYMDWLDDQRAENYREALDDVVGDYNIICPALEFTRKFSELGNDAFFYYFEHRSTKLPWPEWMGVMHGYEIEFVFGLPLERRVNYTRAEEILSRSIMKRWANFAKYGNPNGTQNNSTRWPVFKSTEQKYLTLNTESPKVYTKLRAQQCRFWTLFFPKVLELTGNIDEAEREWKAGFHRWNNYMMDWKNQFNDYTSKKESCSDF
Assay: biochemical
Details: mean ± SEM of three parallel measurements
readout_label: IC50 (µM)
Numbers only, in µM.

query_smiles	target	assay_value
CN(C)c1ccc(C=C2SC(=NN3CCOCC3)N(c3ccccc3)C2=O)cc1	butyrylcholinesterase (BChE) (Equus caballus, UniProt P81908)	37.5
COc1ccc(C=C2SC(=NN3CCOCC3)N(c3ccccc3)C2=O)cc1	butyrylcholinesterase (BChE) (Equus caballus, UniProt P81908)	36.8
O=C1C(=Cc2ccc3[nH]ccc3c2)SC(=NN2CCOCC2)N1c1ccccc1	butyrylcholinesterase (BChE) (Equus caballus, UniProt P81908)	25.5
O=C1C(=Cc2ccc(N3CCCC3)cc2)SC(=NN2CCOCC2)N1c1ccccc1	butyrylcholinesterase (BChE) (Equus caballus, UniProt P81908)	24.4

Batch request: IC50 for each of the following molecules.
1. O=C1C(=Cc2ccsc2)SC(=NN2CCOCC2)N1c1ccccc1
2. O=C1C(=Cc2ccc(N3CCCCC3)cc2)SC(=NN2CCOCC2)N1c1ccccc1

Marked response:
1: 42.5; 2: 32.2

* * *

Consider the following molecules; for each one, report its SI for BChE.
Target: butyrylcholinesterase (BChE) (Equus caballus)
Construct: butyrylcholinesterase (BChE) from horse serum; from tissue; host or cells: horse serum
Experiment: biochemical
Settings: Selectivity index: IC50 for AChE/IC50 for BChE
One number for each entry.

query_smiles	target	assay_value
Cc1ccsc1C=C1SC(=NN2CCOCC2)N(c2ccccc2)C1=O	butyrylcholinesterase (BChE) (Equus caballus)	0.70

Batch request: SI for BChE for each of the following molecules.
1. O=C1C(=Cc2ccc3ccccc3n2)SC(=NN2CCOCC2)N1c1ccccc1
2. O=C1C(=Cc2ccc(N3CCCC3)cc2)SC(=NN2CCOCC2)N1c1ccccc1
3. O=C1C(=Cc2ccc[nH]2)SC(=NN2CCOCC2)N1c1ccccc1
4. COc1ccc(C=C2SC(=NN3CCOCC3)N(c3ccccc3)C2=O)cc1OC

Marked response:
1: 0.77; 2: 0.71; 3: 0.65; 4: 0.75
